substrate: gfPET; experiment: Proxy for plastic degradation [Released monomer concentration (HPLC/LC-MS) (TPA+MHET+BHET)]; settings: 60 °C
OBSERVATION_TYPE: Proxy for plastic degradation (mmol/h)
Give bare numbers, in mmol/h.

// query Given the protein unnamed (protein) MDNPYERGPDPTTQSVEAARGPYAVSQITVGGQFGSYSGGTIYYPTSTTDGKFGAVAIAPGFLSFQSSVAWLGPRIASQGFVVMTIDTGTIFDQPAQRGDQLLDALDFLTQRSSVKDRIDPNRLAVAGWSMGGGGSLEAAADRPSLKAAIPMAGWNLNTNWSRLTTPVLVVGVQNDLIAPVAMHSEPFYNSIRSEKAYLELAGGSHFTVTSANTPQAKLMISWLKRFVDNDTRYEQFICPGPSRGFSVSEYRSTCPF , what is its reported Proxy for plastic degradation?
// result 0.1
